# assay.system: Cytochrome P450 2D6 (Homo sapiens) (UniProt P10635)
# Sequence (P10635 whole entry, looked up): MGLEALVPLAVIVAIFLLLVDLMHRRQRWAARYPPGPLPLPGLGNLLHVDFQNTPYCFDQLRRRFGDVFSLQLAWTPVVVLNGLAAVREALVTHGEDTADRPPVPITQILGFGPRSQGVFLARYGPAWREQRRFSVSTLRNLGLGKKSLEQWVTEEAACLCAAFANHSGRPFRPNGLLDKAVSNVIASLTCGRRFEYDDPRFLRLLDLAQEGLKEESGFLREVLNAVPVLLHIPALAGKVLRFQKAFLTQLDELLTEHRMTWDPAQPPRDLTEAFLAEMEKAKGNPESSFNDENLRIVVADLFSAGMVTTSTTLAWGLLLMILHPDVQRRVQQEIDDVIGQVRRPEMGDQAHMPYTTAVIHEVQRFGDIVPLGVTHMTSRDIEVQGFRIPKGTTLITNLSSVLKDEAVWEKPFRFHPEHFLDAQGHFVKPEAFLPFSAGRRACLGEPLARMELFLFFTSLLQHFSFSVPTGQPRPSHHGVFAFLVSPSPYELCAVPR
# test.protocol: Cytochrome panel assay with activity outcomes
# study.conditions: recombinant CYP, pro-luciferin dealkylation, luminescence, p450-cyp2d6; series mostly up to 57.1 µM
Hit rate of the full screen: of about 16,000 compounds, about 2,600 (16%) were called active. Not shown: some 20% with an inconclusive outcome. Calls follow the shape of the dose curve; as a rule, active = well fitted curve in the direction sought with a large enough effect; inconclusive = small, poorly fitted or top-dose-only effect, or effect the other way; inactive = no such curve, though single readings can be large or run the other way. A selection follows.
Field 'call' accepts active, inactive

Here are 3 compounds together with their reported answers.
>  <item.smiles>
C[C@@H](C(=O)Nc1ccc2ccccc2c1)[C@H]1C[C@]1(C)[C@H](NS(=O)(=O)c1ccc(-c2ccccc2)cc1)c1ccccc1

>  <group>
active

$$$$
>  <item.smiles>
COc1ccc(NC(=O)COC(=O)c2c3c(nc4ccccc24)CCCC3)cc1

>  <group>
inactive

$$$$
>  <item.smiles>
CCCCCCCCCCCC1=C(O)C(=O)C=C(O)C1=O

>  <group>
active

$$$$

Exercise: Please share the test call associated with CC(=O)N1CCC2(CC1)CN(C(=O)Nc1cccc(C#N)c1)C2 .
Solution: inactive

Exercise: # outcome recorded in this test, key = COc1ccccc1CN1CC2(CCN(C(=O)c3cnccn3)CC2)C1
Solution: inactive

Exercise: # lookup: test call for CCN(CC)c1ccc(NC(=O)c2cccnc2)c(C)c1
Solution: inactive

Exercise: Give the logged outcome of this assay for the following compound: CN1CC[C@@]2(CCCN(C(=O)c3cccc(F)c3)C2)C1
Solution: inactive

Exercise: // outcome(item) with item = COc1ccc(OC)c(NC(=O)c2c3c(nc4ccccc24)CCC3)c1
Solution: inactive

Exercise: Dear colleague, could you share the recorded outcome for Cc1cccc(CCNc2nc3ccccc3n3nnnc23)c1 when you have a moment?
Solution: inactive
